# Tested on: P388 mouse leukemia cells
# assay context: 92 h
Where a SMILES comes first, the peptide text is derived from it. [ ]: non-standard residue; d: D form. The star is where a group is joined. NHCH2CH2OH = OCCN*; For = O=C*
endpoint: cell viability/% (%)
Answers are plain numbers, in %.

Example entries begin here.
CC(C)C[C@@H](NC(=O)[C@H](C)NC(=O)CNC(=O)[C@@H](NC=O)C(C)C)C(=O)N[C@@H](C)C(=O)N[C@H](CC(C)C)C(=O)N[C@H](C(=O)N[C@H](CC(C)C)C(=O)N[C@@H](Cc1c[nH]c2ccccc12)C(=O)N[C@@H](C(=O)N[C@@H](Cc1c[nH]c2ccccc12)C(=O)N[C@H](CC(C)C)C(=O)N[C@@H](Cc1c[nH]c2ccccc12)C(=O)N[C@@H](C(=O)N[C@@H](Cc1c[nH]c2ccccc12)C(=O)NCCO)C(C)C)[C@H](C)O)C(C)C [compound 10499] (For-VGA[dL]A[dL]V[dL]W[dT]W[dL]W[dV]W-NHCH2CH2OH) : 100.0
CC(C)C[C@@H](NC(=O)[C@H](C)NC(=O)[C@H](NC(=O)[C@H](C)NC(=O)CNC(=O)[C@@H](NC=O)C(C)C)C(C)C)C(=O)N[C@H](C(=O)N[C@H](CC(C)C)C(=O)N[C@@H](Cc1c[nH]c2ccccc12)C(=O)N[C@H](CC(C)C)C(=O)N[C@@H](Cc1c[nH]c2ccccc12)C(=O)N[C@@H](C(=O)N[C@@H](Cc1c[nH]c2ccccc12)C(=O)N[C@@H](C(=O)N[C@@H](Cc1c[nH]c2ccccc12)C(=O)NCCO)[C@H](C)O)C(C)C)C(C)C [compound 6943] (For-VGA[dV]A[dL]V[dL]W[dL]W[dV]W[dT]W-NHCH2CH2OH) : 100.0
CC(C)C[C@@H](NC(=O)[C@H](Cc1c[nH]c2ccccc12)NC(=O)[C@H](NC(=O)[C@H](Cc1c[nH]c2ccccc12)NC(=O)[C@H](NC(=O)[C@H](Cc1c[nH]c2ccccc12)NC(=O)[C@@H](CC(C)C)NC(=O)[C@@H](NC(=O)[C@H](NC(=O)[C@H](C)NC(=O)[C@H](NC(=O)[C@H](C)NC(=O)CNC(=O)[C@@H](NC=O)C(C)C)C(C)C)C(C)C)C(C)C)C(C)C)C(C)C)C(=O)N[C@@H](Cc1c[nH]c2ccccc12)C(=O)NCCO [compound 10668] (For-VGA[dV]A[dV]V[dL]W[dV]W[dV]W[dL]W-NHCH2CH2OH) : 57.1

Please state, for each entry, its recorded cell viability/%.
1. CC(C)C[C@@H](NC(=O)[C@H](C)NC(=O)[C@H](NC(=O)[C@H](C)NC(=O)CNC(=O)[C@@H](NC=O)C(C)C)C(C)C)C(=O)N[C@H](C(=O)N[C@@H](C(=O)N[C@@H](Cc1c[nH]c2ccccc12)C(=O)N[C@H](CC(C)C)C(=O)N[C@@H](Cc1c[nH]c2ccccc12)C(=O)N[C@@H](C(=O)N[C@@H](Cc1c[nH]c2ccccc12)C(=O)N[C@@H](C(=O)N[C@@H](Cc1c[nH]c2ccccc12)C(=O)NCCO)C(C)C)C(C)C)[C@H](C)O)C(C)C [compound 9487] (For-VGA[dV]A[dL]V[dT]W[dL]W[dV]W[dV]W-NHCH2CH2OH)
2. CNC(=O)C[C@@H](NC(=O)[C@@H](NC(=O)[C@H](NC(=O)[C@H](C)NC(=O)[C@@H](CC(C)C)NC(=O)[C@H](C)NC(=O)CNC(=O)[C@@H](NC=O)C(C)C)C(C)C)C(C)C)C(=O)N[C@@H](Cc1c[nH]c2ccccc12)C(=O)N[C@H](CC(C)C)C(=O)N[C@@H](Cc1c[nH]c2ccccc12)C(=O)N[C@@H](C(=O)N[C@@H](Cc1c[nH]c2ccccc12)C(=O)N[C@H](CC(C)C)C(=O)N[C@@H](Cc1c[nH]c2ccccc12)C(=O)NCCO)C(C)C [compound 2881] (For-VGA[dL]A[dV]V[dD](NHMe)W[dL]W[dV]W[dL]W-NHCH2CH2OH)
3. CC(C)C[C@@H](NC(=O)[C@H](Cc1c[nH]c2ccccc12)NC(=O)[C@@H](CC(C)C)NC(=O)[C@H](Cc1c[nH]c2ccccc12)NC(=O)[C@H](NC(=O)[C@H](Cc1c[nH]c2ccccc12)NC(=O)[C@@H](CC(C)C)NC(=O)[C@@H](NC(=O)[C@H](NC(=O)[C@H](C)NC(=O)[C@H](NC(=O)[C@H](C)NC(=O)CNC(=O)[C@@H](NC=O)C(C)C)C(C)C)C(C)C)C(C)C)C(C)C)C(=O)N[C@@H](Cc1c[nH]c2ccccc12)C(=O)NCCO [compound 12538] (For-VGA[dV]A[dV]V[dL]W[dV]W[dL]W[dL]W-NHCH2CH2OH)
4. CC(C)C[C@@H](NC(=O)[C@H](C)NC(=O)CNC(=O)[C@@H](NC=O)C(C)C)C(=O)N[C@@H](C)C(=O)N[C@@H](C(=O)N[C@H](C(=O)N[C@@H](C(=O)N[C@@H](Cc1c[nH]c2ccccc12)C(=O)N[C@@H](C(=O)N[C@@H](Cc1c[nH]c2ccccc12)C(=O)N[C@@H](C(=O)N[C@@H](Cc1c[nH]c2ccccc12)C(=O)N[C@H](CC(C)C)C(=O)N[C@@H](Cc1c[nH]c2ccccc12)C(=O)NCCO)C(C)C)C(C)C)C(C)C)C(C)C)C(C)C [compound 9223] (For-VGA[dL]A[dV]V[dV]W[dV]W[dV]W[dL]W-NHCH2CH2OH)
5. CC(C)C[C@@H](NC(=O)[C@H](C)NC(=O)[C@H](NC(=O)[C@H](C)NC(=O)CNC(=O)[C@@H](NC=O)C(C)C)C(C)C)C(=O)N[C@H](C(=O)N[C@@H](C(=O)N[C@@H](Cc1c[nH]c2ccccc12)C(=O)N[C@H](CC(C)C)C(=O)N[C@@H](Cc1c[nH]c2ccccc12)C(=O)N[C@@H](C(=O)N[C@@H](Cc1c[nH]c2ccccc12)C(=O)N[C@H](CC(C)C)C(=O)N[C@@H](Cc1c[nH]c2ccccc12)C(=O)NCCO)C(C)C)C(C)C)C(C)C [compound 7146] (For-VGA[dV]A[dL]V[dV]W[dL]W[dV]W[dL]W-NHCH2CH2OH)

Result:
100.0
100.0
2.1
100.0
100.0

* * *

Exercise: state measured cell viability/% for each of the molecules provided.
# System: P388 mouse leukemia cells
# assay context: 92 h
Where a SMILES comes first, the peptide text is derived from it. [ ]: non-standard residue; d: D form. The star is where a group is joined. NHCH2CH2OH = OCCN*; For = O=C*
Numbers only, in %.

CC(C)C[C@@H](NC(=O)[C@H](Cc1c[nH]c2ccccc12)NC(=O)[C@H](NC(=O)[C@H](Cc1c[nH]c2ccccc12)NC(=O)[C@H](NC(=O)[C@H](Cc1c[nH]c2ccccc12)NC(=O)[C@H](NC(=O)[C@@H](NC(=O)[C@H](NC(=O)[C@H](C)NC(=O)[C@H](NC(=O)[C@H](C)NC(=O)CNC(=O)[C@@H](NC=O)C(C)C)C(C)C)[C@H](C)O)C(C)C)C(C)C)C(C)C)C(C)C)C(=O)N[C@@H](Cc1c[nH]c2ccccc12)C(=O)NCCO [compound 5164] (For-VGA[dV]A[dT]V[dV]W[dV]W[dV]W[dL]W-NHCH2CH2OH) : 100.0
CNC(=O)C[C@@H](NC(=O)[C@@H](NC(=O)[C@@H](CC(C)C)NC(=O)[C@H](C)NC(=O)[C@H](NC(=O)[C@H](C)NC(=O)CNC(=O)[C@@H](NC=O)C(C)C)C(C)C)C(C)C)C(=O)N[C@@H](Cc1c[nH]c2ccccc12)C(=O)N[C@@H](C(=O)N[C@@H](Cc1c[nH]c2ccccc12)C(=O)N[C@@H](C(=O)N[C@@H](Cc1c[nH]c2ccccc12)C(=O)N[C@@H](C(=O)N[C@@H](Cc1c[nH]c2ccccc12)C(=O)NCCO)C(C)C)C(C)C)C(C)C [compound 11383] (For-VGA[dV]A[dL]V[dD](NHMe)W[dV]W[dV]W[dV]W-NHCH2CH2OH) : 55.3
CNC(=O)C[C@@H](NC(=O)[C@H](Cc1c[nH]c2ccccc12)NC(=O)[C@H](NC(=O)[C@H](Cc1c[nH]c2ccccc12)NC(=O)[C@H](NC(=O)[C@H](Cc1c[nH]c2ccccc12)NC(=O)[C@@H](CC(C)C)NC(=O)[C@@H](NC(=O)[C@H](NC(=O)[C@H](C)NC(=O)[C@@H](CC(C)C)NC(=O)[C@H](C)NC(=O)CNC(=O)[C@@H](NC=O)C(C)C)C(C)C)C(C)C)C(C)C)C(C)C)C(=O)N[C@@H](Cc1c[nH]c2ccccc12)C(=O)NCCO [compound 8567] (For-VGA[dL]A[dV]V[dL]W[dV]W[dV]W[dD](NHMe)W-NHCH2CH2OH) : 60.9

// switching to the query molecule
Problem: Please look up its cell viability/%: CNC(=O)C[C@@H](NC(=O)[C@@H](NC(=O)[C@@H](CC(C)C)NC(=O)[C@H](C)NC(=O)[C@@H](CC(C)C)NC(=O)[C@H](C)NC(=O)CNC(=O)[C@@H](NC=O)C(C)C)C(C)C)C(=O)N[C@@H](Cc1c[nH]c2ccccc12)C(=O)N[C@H](CC(C)C)C(=O)N[C@@H](Cc1c[nH]c2ccccc12)C(=O)N[C@H](CC(C)C)C(=O)N[C@@H](Cc1c[nH]c2ccccc12)C(=O)N[C@H](CC(C)C)C(=O)N[C@@H](Cc1c[nH]c2ccccc12)C(=O)NCCO [compound 8061] (For-VGA[dL]A[dL]V[dD](NHMe)W[dL]W[dL]W[dL]W-NHCH2CH2OH)
Result: 100.0
